src = patent US20210079109A1

system tested: T1, recombinant human CD63 extracellular loop 2 expressed with a C-terminal Myc-Myc-hexahistidine (human)
T1 construct: also called hCD63 EC loop 2-MMH; human CD63 EC loop 2-MMH
T1 sequence (chain, as listed by the source limits assumed): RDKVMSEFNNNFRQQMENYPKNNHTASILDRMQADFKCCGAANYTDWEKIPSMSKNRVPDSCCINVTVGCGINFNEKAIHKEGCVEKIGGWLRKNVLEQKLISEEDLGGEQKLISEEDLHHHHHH
protocol details: SPR Biacore, mAb captured, 37C
Catalogue of t1/2 values
Express your answer in min, writing the number without its unit.

>>> data_value("H2M12450N (antibody, V domains shown, also called H2aM12450N; mAb12450) VH: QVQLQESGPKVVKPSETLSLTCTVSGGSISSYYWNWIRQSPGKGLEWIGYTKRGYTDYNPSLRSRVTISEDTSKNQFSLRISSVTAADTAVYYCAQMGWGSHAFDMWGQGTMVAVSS VL: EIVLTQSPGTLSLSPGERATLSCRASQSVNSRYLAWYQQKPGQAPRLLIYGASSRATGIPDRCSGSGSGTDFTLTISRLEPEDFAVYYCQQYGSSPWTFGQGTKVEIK")
57

Continue with the binder presented below.
[in] Tell me measured t1/2 for H1M12362N (antibody, V domains shown) VH: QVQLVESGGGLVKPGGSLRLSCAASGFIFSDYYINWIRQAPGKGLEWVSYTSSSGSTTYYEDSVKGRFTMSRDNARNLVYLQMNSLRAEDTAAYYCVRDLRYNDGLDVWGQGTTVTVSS VL: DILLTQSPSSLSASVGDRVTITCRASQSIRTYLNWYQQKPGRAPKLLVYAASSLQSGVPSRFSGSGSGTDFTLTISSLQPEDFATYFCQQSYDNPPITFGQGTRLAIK please.
[out] 2
